Test system: AML12 mouse hepatocytes, BODIPY lipid droplet imaging
Protocol details: inhibitors of hepatocyte lipid droplet formation, SAR follow-up, imaging, AML12 mouse hepatocytes, BODIPY staining (AID 493092)
Test parameters: cells fed 100 µM oleate overnight
Activity calls are given as the source filed them.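 How the source made its calls: active means averaged IC50 for reducing per-cell lipid droplet stain intensity under a set limit; inactive means the rest.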
// classify into active, inactive

Challenge: Which outcome was assigned to COc1ccc(-c2csc(NC(=O)c3ccc(OCC(=O)N4CCOCC4)c(OC)c3)n2)cc1 in this test?
Response given: active

Challenge: Which outcome was assigned to CCc1ccc(NC(=O)CCC(=O)Nc2cc(OC)c(NC(=O)c3cccs3)cc2OC)cc1 in this test?
Response given: active

Challenge: Which outcome was assigned to Cc1nn2c(N3CCOCC3)c3c(nc2c1-c1ccccc1)CCC3 in this test?
Response given: inactive

Challenge: Which outcome was assigned to Cc1cc(N2CCOCC2)n2nc(C)c(-c3ccc(Cl)cc3)c2n1 in this test?
Response given: active

Challenge: Which outcome was assigned to Cc1cc(N2CCOCC2)n2nc(C(F)(F)F)c(-c3ccc(Cl)cc3)c2n1 in this test?
Response given: active

Challenge: Which outcome was assigned to CCCc1cc(N2CCCC2)n2nc(C)c(-c3ccccc3)c2n1 in this test?
Response given: active

Challenge: Which outcome was assigned to CC(OC(=O)c1cccc([N+](=O)[O-])c1)C(=O)Nc1nc(-c2ccccc2)cs1 (configuration not stated) in this test?
Response given: inactive

---

Test system: AML12 mouse hepatocytes, BODIPY lipid droplet imaging
Protocol details: inhibitors of hepatocyte lipid droplet formation, SAR follow-up, imaging, AML12 mouse hepatocytes, BODIPY staining (AID 493092)
Test parameters: cells fed 100 µM oleate overnight
Activity calls are given as the source filed them.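 The calls were made as follows: active = averaged IC50 for reducing per-cell lipid droplet stain intensity under a set limit; inactive = the rest.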
// classify into active, inactive

Challenge: Which outcome was assigned to CCOc1ccc(CCNC(=O)CCc2nnc3ccc(N4CCCCC4)nn23)cc1OCC in this test?
Response given: active

Challenge: Which outcome was assigned to CCOc1ccc(C(C)NC(=O)Cc2ccccc2F)cc1OCC (centres undefined) in this test?
Response given: active

Challenge: Which outcome was assigned to CCOc1ccc(CCNC(=O)CCC(=O)N2CCOc3ccccc32)cc1OCC in this test?
Response given: active

Challenge: Which outcome was assigned to COc1ccccc1NS(=O)(=O)c1ccc(NN=Cc2c(C)nn(-c3ccccc3)c2N2CCCC2)c([N+](=O)[O-])c1 in this test?
Response given: active

Challenge: Which outcome was assigned to COc1ccc(NC(=O)CCC(=O)Nc2cc(OC)c(NC(=O)c3cccs3)cc2OC)cc1 in this test?
Response given: active

Challenge: Which outcome was assigned to COc1cc2c(cc1OC)CN(C(=O)CNC(=O)Cc1cccc3ccccc13)CC2 in this test?
Response given: active

Challenge: Which outcome was assigned to Cc1cc(C)n(-c2ccc(C(=O)OC(C)C(=O)Nc3nc(-c4ccccc4)cs3)cc2)n1 (centres undefined) in this test?
Response given: inactive

Challenge: Which outcome was assigned to CCOc1ccc(CCNC(=O)c2nnc(Cc3ccc(F)cc3)o2)cc1OCC in this test?
Response given: active

Challenge: Which outcome was assigned to Cc1ccc(C(=O)NCC(=O)NCCCc2ccccc2)cc1 in this test?
Response given: inactive

Challenge: Which outcome was assigned to CCOc1ccc(CCNC(=O)CCC(=O)N2CCOc3ccc(C)cc32)cc1OCC in this test?
Response given: active

Challenge: Which outcome was assigned to CCOc1ccccc1Nc1nnc(SC(C)C(=O)Nc2nc(-c3ccccc3)cs2)s1 (centres undefined) in this test?
Response given: active

Challenge: Which outcome was assigned to O=C(CSCC(=O)N1CCCc2ccccc21)Nc1nc(-c2ccccc2)cs1 in this test?
Response given: inactive

Challenge: Which outcome was assigned to CCOc1cc2c(cc1OCC)CN(C(=O)CNC(=O)c1ccc3ccccc3c1)CC2 in this test?
Response given: active

Challenge: Which outcome was assigned to CCOc1ccc(C(=O)OC(C)C(=O)Nc2nc(-c3ccc(CC)cc3)cs2)cc1OCC (centres undefined) in this test?
Response given: active

Challenge: Which outcome was assigned to CC1CCCN(C(=O)c2ccc3c(c2NCCO)C(=O)c2ccccc2C3=O)C1 (centres undefined) in this test?
Response given: active

Challenge: Which outcome was assigned to Cc1nn2c(N3CCOCC3)cc(C(C)(C)C)nc2c1-c1ccc(Cl)cc1 in this test?
Response given: inactive

Challenge: Which outcome was assigned to COc1ccc(CCNC(=O)Nc2ccc(F)cc2F)cc1OC in this test?
Response given: inactive

Challenge: Which outcome was assigned to COc1ccc(CN(C)C(=O)CNC(=O)Cc2cccc3ccccc23)c(OC)c1 in this test?
Response given: active

Challenge: Which outcome was assigned to CCOc1ccc(CCNC(=O)COC(=O)c2cc(OC)cc(OC)c2)cc1OCC in this test?
Response given: active

Challenge: Which outcome was assigned to COc1ccccc1NC(=O)C1CCN(C(=O)NCc2ccccc2)CC1 in this test?
Response given: active

Challenge: Which outcome was assigned to CC1CC(C)CN(C(=O)c2ccc3c(c2NCCO)C(=O)c2ccccc2C3=O)C1 (centres undefined) in this test?
Response given: active

Challenge: Which outcome was assigned to CCOc1ccccc1C(=O)NCC(=O)NCCCc1ccccc1 in this test?
Response given: inactive

Challenge: Which outcome was assigned to COc1ccc(CN(C)C(=O)CNC(=O)Cc2cccc3ccccc23)c(OC)c1OC in this test?
Response given: active

Challenge: Which outcome was assigned to Cc1ccc(C(=O)OC(C)C(=O)Nc2nc(-c3cccc([N+](=O)[O-])c3)cs2)cc1 (centres undefined) in this test?
Response given: inactive

Challenge: Which outcome was assigned to CC(C)Oc1ccc(C(=O)OC(C)C(=O)Nc2nc(-c3cccc([N+](=O)[O-])c3)cs2)cc1 (centres undefined) in this test?
Response given: active

Challenge: Which outcome was assigned to CCOc1ccc(CCNC(=O)CCOc2cc(C)ccc2C)cc1OCC in this test?
Response given: active

Challenge: Which outcome was assigned to COc1cc(NC(=O)c2cccs2)c(OC)cc1NC(=O)CCC(=O)Nc1cc(C)cc(C)c1 in this test?
Response given: active

Challenge: Which outcome was assigned to CCOc1ccc(CCNC(=O)Nc2ccccc2)cc1OCC in this test?
Response given: active

Challenge: Which outcome was assigned to CCOc1ccc(CCNC(=O)Cn2ncn3nc(-c4ccc(OC)cc4)cc3c2=O)cc1OCC in this test?
Response given: active

Challenge: Which outcome was assigned to CCOc1cc(CNC(=O)CCCn2c(=O)c3cccn3c3cccnc32)cc(OCC)c1OCC in this test?
Response given: active

Challenge: Which outcome was assigned to COc1ccc(C(=O)OCC(=O)NC(C)CCc2ccccc2)cc1OC (centres undefined) in this test?
Response given: inactive

Challenge: Which outcome was assigned to CCOc1ccc(CCNC(=O)CSc2cc(=O)n(C)c3ccccc23)cc1OCC in this test?
Response given: active

Challenge: Which outcome was assigned to CC(OC(=O)c1ccc(O)cc1)C(=O)Nc1nc(-c2ccccc2)cs1 (centres undefined) in this test?
Response given: inactive

Challenge: Which outcome was assigned to CC(Sc1nnc(Nc2ccccc2)s1)C(=O)Nc1nc(-c2ccccc2)cs1 (centres undefined) in this test?
Response given: active
